The reported numbers originate from paper PMC8708875.

# test_details: in vitro
# Assay type: in vitro ADME
# condition_description: other tissue homogenate, mouse kidney crude extract 3 µg, peptide 50 µM, 250 µL TBS (0.025 M Tris-HCl, 0.125 M NaCl), RP-HPLC C18, UV 214 nm, average of three independent determinations, read-out: % of peptide degraded, Kidney Extract (3 µg)
Square brackets hold non-standard residues; d marks the D form. Peptide text beside a SMILES is read from it.
readout_type: metabolised at 20 min

molecule	reported
CC(=O)N[C@@H](CC(C)C)C(=O)N[C@@H](C)C(=O)N[C@@H](CO)C(=O)N[C@H](C(=O)N[C@@H](CO)C(=O)N[C@H](C(=O)N[C@H](C(=O)N[C@H](CC(C)C)C(=O)N[C@H](C(=O)N[C@@H](CO)C(=O)N[C@@H](CCCCN)C(=O)N[C@@H](Cc1ccc(O)cc1)C(=O)N[C@@H](CCCNC(=N)N)C(N)=O)[C@@H](C)O)C(C)C)[C@@H](C)O)C(C)C [RIC4-16] (Ac-LASVSTV[dL]TSKYR-NH2)	12.5%
